Recorded measurements of MIC, one per entry
system: Morganella morganii IID 602; assay: MIC by agar plate dilution method, Morganella morganii IID 602; format: cell-based; details: IID602; Morganella morganii IID 602; inoculum size 10^6 cells/ml; read-out: MIC
Where a name gives a salt, the structure may show the parent alone.

Known MIC results, listed for orientation:
{"Compound": "N#CCSC1=C(C(=O)O)N2C(=O)[C@@H](NC(=O)/C(=N\\OCC(=O)O)c3csc(N)n3)[C@H]2SC1 [A]", "MIC": "< 0.1 µg/mL"}
{"Compound": "Nc1nc(/C(=N/OCC(=O)O)C(=O)N[C@@H]2C(=O)N3C(C(=O)O)=C(SCCF)CS[C@H]23)cs1 [C]", "MIC": "< 0.1 µg/mL"}
{"Compound": "NC(=O)OCCSC1=C(C(=O)O)N2C(=O)[C@@H](NC(=O)/C(=N\\OCC(=O)O)c3csc(N)n3)[C@H]2SC1 [G, sodium salt]", "MIC": "≤ 0.1 µg/mL"}
{"Compound": "COCCSC1=C(C(=O)O)N2C(=O)[C@@H](NC(=O)/C(=N\\OCC(=O)O)c3csc(N)n3)[C@H]2SC1 [B]", "MIC": "≤ 0.1 µg/mL"}
{"Compound": "Nc1nc(/C(=N/OCC(=O)O)C(=O)N[C@@H]2C(=O)N3C(C(=O)O)=C(SCc4ccccn4)CS[C@H]23)cs1 [E]", "MIC": "≤ 0.1 µg/mL"}

MIC for NCCCSC1=C(C(=O)O)N2C(=O)[C@@H](NC(=O)/C(=N\OCC(=O)O)c3csc(N)n3)[C@H]2SC1 [D] is 0.39 µg/mL

MIC for NC(=O)CCSC1=C(C(=O)O)N2C(=O)[C@@H](NC(=O)/C(=N\OCC(=O)O)c3csc(N)n3)[C@H]2SC1 [F] is 0.1 µg/mL

MIC for CSC1=C(C(=O)O)N2C(=O)[C@@H](NC(=O)/C(=N\OCC(=O)O)c3csc(N)n3)[C@H]2SC1 [XX, sodium salt, reference compound] is 0.39 µg/mL
